# Species on record: Homo sapiens
# procedure details: To identify inhibition of the IFN signalling (Jak-Stat) pathway via expression of an eGFP reporter gene under the control of an IFN-stimulated response element (ISRE) containing MxA promoter.
# Format: functional
# Design: scale not given: direction of the effect not stated beside the values
# experimental context: 30 µM
Measured Percent Effect, listed per entry for reference.
reported property: Percent Effect (%)

• CCC1(CC)Cc2ccccc2-c2nc(NCCO)[nH]c(=O)c21 = 29.8
• CCN(CC)C(=O)Nc1cc2c(cc1SC)OCCO2 = -7.38
• O=C(NCc1cc[nH]n1)NC1CCCN(c2ncccn2)C1 (stereo not drawn) = -3.24
• N#Cc1ccc(F)c(CN2CCCC2Cn2cccn2)c1 (stereo not drawn) = 4.22
• CC(C)Oc1cccc(CNC(=O)NC(C)(C(=O)O)c2ccco2)c1 (stereo not drawn) = -7.9
• CC(C)c1nc(C2CCCN(C(=O)Cc3cccnc3)C2)no1 (stereo not drawn) = 25.4
• Cc1cc(=O)[nH]c(CCNC(=O)C(c2ccc(F)cc2)N(C)C)n1 (stereo not drawn) = 26.9
• CCN(Cc1ccco1)C(=O)Nc1cc(C(F)(F)F)c[nH]c1=O = -6.49
• Cc1cc(C2CCCN(CCCNS(C)(=O)=O)C2)n[nH]1 (stereo not drawn) = -2.96
• Cc1noc2nc(C3CCN(Cc4cccnc4)CC3)cc(C(F)F)c12 = 25.1
• CCC1CCCCN1C(=O)c1ccc2[nH]nnc2c1 (stereo not drawn) = 1.34
• O=C(c1cscn1)N1C[C@@H]2C[C@@H](c3nnc(C4CC4)o3)O[C@@H]2C1 = 7.19
• CC(NCc1ccccc1Br)c1ccc2[nH]c(=O)[nH]c2c1 (stereo not drawn) = 25.5
• O=C(NCCCN1CCCC1=O)Nc1ccc(Br)cc1Cl = 8.83
• Nc1ncc2c(n1)CN(C1CCCC1)C2=O = -17.3
• Cc1nn(C)c(N(C)C)c1CNC1CCOc2c(F)cccc21 (stereo not drawn) = 9.98
• Cc1cnn(CC2CCCCN2C(=O)c2ccc3nnc(C)n3c2)c1 (stereo not drawn) = 21
• COCCn1nc(C(=O)N2CCCC2c2cccc(F)c2)ccc1=O (stereo not drawn) = -4.91
• O=C(NCC1CC1)C1=NOC2(CCN(Cc3ccc4c(c3)OCO4)C2)C1 (stereo not drawn) = 0.899
• O=C(CCc1nccs1)N1CCN(c2ccc(Br)cn2)CC1 = 31.4
• COc1ccccc1[C@@H]1CN(Cc2cc(C(C)(C)C)[nH]n2)C[C@H]1C(=O)O = 0.766
• O=C(NCCc1ccccn1)C1=NN(c2ccccc2)C(=O)CN1 = 11.7
• COCCN1C[C@H]2CC[C@@]3(N=C(C)N(CC4CC4)C3=O)[C@H]2C1 = 7.83
• Cc1cccc(-c2[nH]ncc2CNCC2CCN(CC(C)O)CC2)c1 (stereo not drawn) = 3.31
• Cc1nccn1-c1nccnc1C1CCN(Cc2ccc(F)cc2)CC1 = 7.46
• CCN1CCN(C2CCN(Cc3ncc(C(C)(C)C)o3)CC2)C1=O = -13.2
• CC(C(=O)Nc1cccc(N2CCCCC2)c1)n1cncn1 (stereo not drawn) = 0.641
• CN(Cc1nnc(-c2ccco2)o1)CC1CCCN1c1cccnn1 (stereo not drawn) = 15.6

###

Measured Percent Effect, listed per entry for reference.
# Organism: Homo sapiens
# procedure details: To identify inhibition of the IFN signalling (Jak-Stat) pathway via expression of an eGFP reporter gene under the control of an IFN-stimulated response element (ISRE) containing MxA promoter.
# Type: functional
# Design: scale not given: direction of the effect not stated beside the values
# experimental context: 30 µM
reported property: Percent Effect

- CN(C)CC1CSCCCN1C(=O)Nc1ccc(C(C)(C)C)cc1 (stereo not drawn): 13.1%
- CC(O)CN1CCN(Cc2nnc(C3CC3)o2)CC1 (stereo not drawn): -18.4%
- Cc1nc(-c2ccccc2)n(CC(=O)N(C(C)C)C(C)C)n1: 14.6%

###

Measured Percent Effect, listed per entry for reference.
# assayed target: Protein translocase subunit SecA (Escherichia coli (strain K12)) (UniProt P10408)
# Sequence (P10408 whole entry): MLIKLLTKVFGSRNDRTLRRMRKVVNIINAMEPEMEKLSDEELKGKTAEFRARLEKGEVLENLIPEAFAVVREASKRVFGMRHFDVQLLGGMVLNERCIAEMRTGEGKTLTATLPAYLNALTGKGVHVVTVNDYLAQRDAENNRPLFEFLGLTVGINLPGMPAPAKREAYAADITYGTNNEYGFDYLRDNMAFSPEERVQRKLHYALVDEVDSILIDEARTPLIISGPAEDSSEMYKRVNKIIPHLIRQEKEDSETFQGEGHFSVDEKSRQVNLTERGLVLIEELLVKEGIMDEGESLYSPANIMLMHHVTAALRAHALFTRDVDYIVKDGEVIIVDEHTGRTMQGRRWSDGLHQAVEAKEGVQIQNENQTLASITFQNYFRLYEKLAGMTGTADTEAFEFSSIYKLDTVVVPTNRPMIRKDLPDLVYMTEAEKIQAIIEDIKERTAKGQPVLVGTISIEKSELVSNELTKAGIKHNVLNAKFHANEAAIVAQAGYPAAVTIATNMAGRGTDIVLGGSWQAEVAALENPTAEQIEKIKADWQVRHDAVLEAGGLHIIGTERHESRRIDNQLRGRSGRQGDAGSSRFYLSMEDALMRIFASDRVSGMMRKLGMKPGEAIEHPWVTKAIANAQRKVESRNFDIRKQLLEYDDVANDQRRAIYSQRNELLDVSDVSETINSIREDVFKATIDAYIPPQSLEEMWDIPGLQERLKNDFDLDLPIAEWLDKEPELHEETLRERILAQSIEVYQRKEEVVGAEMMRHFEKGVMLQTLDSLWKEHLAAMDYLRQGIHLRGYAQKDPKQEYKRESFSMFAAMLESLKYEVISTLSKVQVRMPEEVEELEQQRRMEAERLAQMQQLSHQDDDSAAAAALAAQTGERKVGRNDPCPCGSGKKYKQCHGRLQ
# procedure details: Assay to Identify E. coli SecA ATPase Inhibitors
# Type: functional
# Parameters: scale not given: direction of the effect not stated beside the values
# experimental context: 30 µM
Measured potencies and affinities stand elsewhere.
reported property: Percent Effect (%)

• Cc1nc(CN2CCCC2c2nc(C(C)C)no2)cs1 (configuration not stated) = -3.44
• CCCc1noc(CCC(=O)NC(C)c2nnc3n2CCCCC3)n1 (configuration not stated) = -0.578
• COc1ccccc1OCc1cc(C(=O)N2CC=CC2C(C)C)n[nH]1 (configuration not stated) = 0.254
• CC(C)CN1CCCC2(CCN(C(=O)c3cnccn3)C2)C1 (configuration not stated) = 2.12
• COc1c(CNCc2ccc(N(C)C)nc2)c(C(C)C)nn1C = -3.16
• Cc1cnc(N2CCC3(CCCN(c4ccc(C)nn4)C3)C2)nc1 (configuration not stated) = 1.3
• Cn1cnc(S(=O)(=O)N2CCCC2)c1Cl = -1.75
• CC(NC(=O)COc1nc(C(C)(C)C)no1)c1ccco1 (configuration not stated) = -6.83
• COc1cccc(S(=O)(=O)NC2CNC(=O)C2)c1 (configuration not stated) = -6
• O=C1NC(c2ccccc2)=N[C@@]12CC[C@@H]1CN(CC3CCOCC3)C[C@@H]12 = -1.53
• Cc1ccc(CNC(=O)Nc2cc(C(F)(F)F)c[nH]c2=O)cn1 = -3.22
• Cc1cc(F)ccc1CN1CCC(O)(CN2CCCCC2)C1 (configuration not stated) = -6.21
• CCNC(=O)[C@@H]1C[C@H](NC(=O)c2ccccc2C#N)CN1CCCSC = -6.15
• O=C1N(c2ccc(F)cc2)Cc2nc(=O)n(Cc3cccc(Cl)c3)n21 = 0.397
• CCOc1cc(C)nc(N2CCN(Cc3nccn3C)CC2)n1 = 0.029
• CCCNC(=O)C1CCN(Cc2csc(C(C)(C)C)n2)CC1 = -0.61
• CC(C)c1ncncc1C(=O)N1CCN(Cc2cscn2)CC1 = -12.5
• COCC(=O)N1CCN(C(=O)c2scnc2C)CC1 = -4.41
• CN(C)[C@@H]1CCN(c2ncccn2)[C@H]1Cc1ccccc1 = -5.52
• CNc1cncc(C2CCCN(S(C)(=O)=O)C2)n1 (configuration not stated) = -1.57
• O=C(N1CCCO1)[C@@]12CCO[C@@H]1CCN(C1CCCCC1)C2 = -5.99
• COCCCN1CCCN(C(C)C(=O)Nc2cccc(I)c2)CC1 (configuration not stated) = -5.27

###

# Organism: Homo sapiens
# procedure details: To identify inhibition of the IFN signalling (Jak-Stat) pathway via expression of an eGFP reporter gene under the control of an IFN-stimulated response element (ISRE) containing MxA promoter.
# Type: functional
# Parameters: scale not given: direction of the effect not stated beside the values
# experimental context: 30 µM
Measured Percent Effect, listed per entry for reference.
reported property: Percent Effect (%)

* CSCCC1c2nc[nH]c2CCN1Cc1cc(Cl)ccc1O (centres undefined) | 35.7
* O=C1CC(N(C(=O)c2ccc3c(c2)CCC3)C2CC2)C(=O)N1 (centres undefined) | 25.8
* Cc1nc(C)n(C2CCCN(C(=O)c3ccc4c(c3)COC4)C2)n1 (centres undefined) | 6.78
* COc1ccc(-n2ccc(C(=O)N3CCN(C)CC3C)n2)cc1 (centres undefined) | 3.45
* Cc1oc(C(=O)O)cc1S(=O)(=O)Nc1ccc(Cl)c(F)c1 | 27.1
* NC(=O)c1cnn2c1NCC(CNCCCOc1ccccc1F)C2 (centres undefined) | 2.29
* CC(C)N1CC(C(=O)NCCc2csc(-c3ccncc3)n2)CC1=O (centres undefined) | 21
* Cc1ccc(CNCc2nnc3n2CCCC3C(F)(F)F)o1 (centres undefined) | 11.4
* COc1c(CNC2CCCc3ccccc32)c(C)nn1C (centres undefined) | 7.25
* CN(Cc1ccsc1)C(=O)Nc1cccnc1N1CCCC1 | 6.49
* COc1ccc(NC(=O)NC(C)(C)c2noc(C)n2)cc1 | 7.14
* Cc1ccc(NC(=O)Cn2cc(I)cn2)cc1 | 28.2
* Cc1nn2c(N3CCC(O)C3)cc(-c3ccccc3)nc2c1C (centres undefined) | -0.188
* CC(C(=O)NCc1cccc(N2CC=CC2)c1)n1cccn1 (centres undefined) | 22.9
* CSc1ccc(C(CNC(=O)C2CC2)N2CCc3sccc3C2)cc1 (centres undefined) | 9.34
* O=C(NCCOCC(F)(F)F)c1ccc(-c2ccco2)[nH]c1=O | 19.7
* CC(C)(NCC(=O)NCC(F)(F)F)c1ccc2c(c1)OCCO2 | 5.37
* COc1ccc(CNC(C)c2ccc3[nH]c(=O)[nH]c3c2)cc1 (centres undefined) | 22.4
* Fc1ccc(-c2nnc(CN3CCOC(Cn4cncn4)C3)o2)cc1 (centres undefined) | 19.6
